System: MDCK-II
Assay: Cytotoxicity against MDCK2 cells assessed as reduction in cell viability at 10 uM after 72 hrs by MTT assay
Assay type: cell-based, Canis lupus familiaris
Settings: dog
READOUT KIND: Activity

Check out these entries, answers already filled in.
>>> result("COc1cc(Nc2cc(C)nc(-c3ccccc3)n2)ccc1Br")
"Non-Toxic"
>>> result("Cc1cc(Nc2ccc(F)c(C#N)c2)nc(-c2ccccc2)n1")
"Non-Toxic"
>>> result("Cc1cc(Nc2ccc(C#N)c(Br)c2)nc(-c2ccccc2)n1")
"Non-Toxic"
>>> result("Cc1cc(Nc2cccc(O)c2)nc(-c2ccccc2)n1")
"Non-Toxic"
>>> result("Cc1cc(Nc2cccc(CO)c2)nc(-c2ccccc2)n1")
"Non-Toxic"

(Q) Please report the recorded Activity for Cc1cc(Nc2cccc(Cl)c2)nc(-c2ccccc2)n1 .
(A) Non-Toxic

====

Test system: MDCK-II
Assay: Cytotoxicity against MDCK2 cells assessed as reduction in cell viability at 10 uM after 72 hrs by MTT assay
Assay type: cell-based, Canis lupus familiaris
Conditions: dog
READOUT KIND: Activity

Check out these entries, answers already filled in.
>>> result("Cc1cc(Nc2ccc(CC#N)cc2)nc(-c2ccccc2)n1")
"Non-Toxic"
>>> result("Cc1cc(Nc2ccc3nccnc3c2)nc(-c2ccccc2)n1")
"Non-Toxic"
>>> result("Cc1cc(Nc2ccc3ncccc3c2)nc(-c2ccccc2)n1")
"Non-Toxic"
>>> result("Cc1cc(Nc2cccc(F)c2)nc(-c2ccccc2)n1")
"Non-Toxic"
>>> result("Cc1cc(Nc2ccc(C#N)c(C(F)(F)F)c2)nc(-c2ccccc2)n1")
"Toxic"

Next molecule, Activity to be filled in.
(Q) Please report the recorded Activity for Cc1cc(Nc2ccc(F)c([N+](=O)[O-])c2)nc(-c2ccccc2)n1 .
(A) Non-Toxic

====

Experiment: Cytotoxicity against MDCK2 cells over expressing human ABCG2 assessed as reduction in cell viability after 72 hrs by MTT assay
Assay type: ADME, cell-based, Canis lupus familiaris, MDCK-II
Settings: dog, MDCK2 cells overexpressing human ABCG2
READOUT KIND: GI50 at 72 h
Reply with the number and its unit after it.

(Q) Please report the recorded GI50 at 72 h for Cc1cc(Nc2ccc3ncccc3c2)nc(-c2ccccc2)n1 .
(A) 42.1 µM

====

Experiment: Growth inhibition of MDCK2 cells after 72 hrs by MTT assay
Type: cell-based, Canis lupus familiaris, MDCK-II
Conditions: dog
GI50 at 72 h overview
Give the value, in units of µM, as a plain number.

Check out these entries, answers already filled in.
>>> quantitative_result("C[S+](C)[O-] [DIMETHYL SULFOXIDE]")
123
>>> quantitative_result("Cc1cc(Nc2ccc([N+](=O)[O-])cc2)nc(-c2ccccc2)n1")
16.7
>>> quantitative_result("Cc1cc(Nc2ccc(F)c(C#N)c2)nc(-c2ccccc2)n1")
102
>>> quantitative_result("Cc1cc(Nc2ccc(C#N)c(C(F)(F)F)c2)nc(-c2ccccc2)n1")
9.89
>>> quantitative_result("COc1ccc(Nc2cc(C)nc(-c3ccccc3)n2)cc1C(F)(F)F")
10.1

(Q) Please report the recorded GI50 at 72 h for Cc1cc(Nc2ccc(C#N)c(Br)c2)nc(-c2ccccc2)n1 .
(A) 188

(Q) Okay, and Cc1cc(Nc2ccc(C#N)c(C)c2)nc(-c2ccccc2)n1 ?
(A) 15.7

====

Assay: Growth inhibition of MDCK2 cells over expressing human ABCG2 after 72 hrs by MTT assay
Format: ADME, cell-based, Canis lupus familiaris, MDCK-II
Conditions: dog, MDCK2 cells overexpressing human ABCG2
GI50 at 72 h overview

>>> result("Cc1cc(Nc2ccc(C#N)c(C)c2)nc(-c2ccccc2)n1")
"15.7 µM"
>>> result("Cc1cc(Nc2ccc(C#N)c(Br)c2)nc(-c2ccccc2)n1")
"145 µM"
>>> result("Cc1cc(Nc2ccc(F)c(C#N)c2)nc(-c2ccccc2)n1")
"96.7 µM"
>>> result("C[S+](C)[O-] [DIMETHYL SULFOXIDE]")
"137 µM"
>>> result("Cc1cc(Nc2ccc(C#N)c(C(F)(F)F)c2)nc(-c2ccccc2)n1")
"9.57 µM"
>>> result("COc1ccc(Nc2cc(C)nc(-c3ccccc3)n2)cc1C(F)(F)F")
"8.4 µM"

Next compound, GI50 at 72 h to be filled in.
(Q) Please report the recorded GI50 at 72 h for Cc1cc(Nc2ccc([N+](=O)[O-])cc2)nc(-c2ccccc2)n1 .
(A) 17 µM

====

Assay: Cytotoxicity against MDCK2 cells assessed as reduction in cell viability after 72 hrs by MTT assay
Assay type: cell-based, Canis lupus familiaris, MDCK-II
Details: dog
READOUT KIND: GI50 at 72 h (µM)
Give the value, in units of µM, as a plain number.

(Q) Please report the recorded GI50 at 72 h for Cc1cc(Nc2ccc3ncccc3c2)nc(-c2ccccc2)n1 .
(A) 38.4

====

Biological target: UniProt Q9UNQ0
Experiment: Inhibition of human ABCG2-mediated multidrug resistance in MDCK2 cells assessed as potentiation of SN-38-induced cytotoxicity by measuring half-maximal cell death acceleration at 10 to 50 nM measured at 5.75 days by MTT assay
Details: dose 10-50 nM, time 5.7 day; read-out: Activity
READOUT KIND: pEC50
Worth noting: pEC50 values are minus log10 of concentrations stated in mol/L.

(Q) Please report the recorded pEC50 for Cc1cc(Nc2ccc(C#N)c(C)c2)nc(-c2ccccc2)n1 .
(A) 7.76

====

Molecular target: ATP-dependent translocase ABCB1 (Homo sapiens)
Sequence (P08183 whole entry): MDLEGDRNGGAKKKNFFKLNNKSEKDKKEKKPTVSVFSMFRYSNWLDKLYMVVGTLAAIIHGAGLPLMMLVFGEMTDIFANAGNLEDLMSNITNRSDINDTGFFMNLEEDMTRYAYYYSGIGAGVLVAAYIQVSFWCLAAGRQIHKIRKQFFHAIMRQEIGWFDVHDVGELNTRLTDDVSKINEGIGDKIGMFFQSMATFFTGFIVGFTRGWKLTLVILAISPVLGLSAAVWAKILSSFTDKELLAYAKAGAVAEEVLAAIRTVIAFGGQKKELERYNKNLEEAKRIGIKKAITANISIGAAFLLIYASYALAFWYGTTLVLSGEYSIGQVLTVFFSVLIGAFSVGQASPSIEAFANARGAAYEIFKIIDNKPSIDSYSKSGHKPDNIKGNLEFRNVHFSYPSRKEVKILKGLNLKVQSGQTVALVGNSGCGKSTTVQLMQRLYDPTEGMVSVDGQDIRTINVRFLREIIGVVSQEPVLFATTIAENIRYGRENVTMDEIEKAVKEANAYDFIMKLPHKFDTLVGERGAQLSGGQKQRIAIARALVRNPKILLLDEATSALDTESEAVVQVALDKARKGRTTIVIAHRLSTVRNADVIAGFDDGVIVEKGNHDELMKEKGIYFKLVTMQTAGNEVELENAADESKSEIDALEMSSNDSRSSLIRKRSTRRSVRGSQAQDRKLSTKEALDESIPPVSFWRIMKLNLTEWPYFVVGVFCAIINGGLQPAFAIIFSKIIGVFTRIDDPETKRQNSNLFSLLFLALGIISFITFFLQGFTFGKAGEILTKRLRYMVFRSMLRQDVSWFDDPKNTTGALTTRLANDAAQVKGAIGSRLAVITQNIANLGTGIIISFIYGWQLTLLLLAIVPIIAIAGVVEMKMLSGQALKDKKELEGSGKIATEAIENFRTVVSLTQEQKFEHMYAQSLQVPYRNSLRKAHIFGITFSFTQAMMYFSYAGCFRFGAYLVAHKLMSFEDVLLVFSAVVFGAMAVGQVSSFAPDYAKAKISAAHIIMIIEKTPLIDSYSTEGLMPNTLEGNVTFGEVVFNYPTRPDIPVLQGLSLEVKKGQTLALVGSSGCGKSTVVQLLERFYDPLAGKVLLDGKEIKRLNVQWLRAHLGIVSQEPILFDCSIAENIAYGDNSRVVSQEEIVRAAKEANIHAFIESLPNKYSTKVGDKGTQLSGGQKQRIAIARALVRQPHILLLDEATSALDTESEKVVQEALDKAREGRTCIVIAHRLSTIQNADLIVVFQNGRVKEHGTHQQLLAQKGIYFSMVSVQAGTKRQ
Assay: Inhibition of human ABCB1 expressed in A2780/ADR cells preincubated for 30 mins followed by calcein AM addition and measured every 60 secs for 60 mins by fluorescence assay
IC50 overview
Give the value, in units of µM, as a plain number.

Check out these entries, answers already filled in.
>>> quantitative_result("Cc1cc(Nc2ccc3ncccc3c2)nc(-c2ccccc2)n1")
5.13
>>> quantitative_result("Cc1cc(Nc2ccc([N+](=O)[O-])cc2)nc(-c2ccccc2)n1")
11.2

(Q) Please report the recorded IC50 for COc1ccc(Nc2cc(C)nc(-c3ccccc3)n2)cc1C(F)(F)F .
(A) 7.3

(Q) Okay, and Cc1cc(Nc2ccc(CC#N)cc2)nc(-c2ccccc2)n1 ?
(A) 16

(Q) Okay, and Cc1cc(Nc2cccc(Cl)c2)nc(-c2ccccc2)n1 ?
(A) 5.92

(Q) Okay, and Cc1cc(Nc2ccc3nccnc3c2)nc(-c2ccccc2)n1 ?
(A) 13.4

(Q) Okay, and COc1ccc(Nc2cc(C)nc(-c3ccccc3)n2)cc1F ?
(A) 8.99

(Q) Okay, and Cc1cc(Nc2ccc3c(c2)OCCO3)nc(-c2ccccc2)n1 ?
(A) 13.1

====

System: ABCC1
Assay: Therapeutic ratio of GI50 for Growth inhibition of MDCK2 cells over expressing human ABCC1 to IC50 for inhibition of human ABCC1 expressed in MDCK2 cells preincubated for 30 mins followed by calcein AM addition and measured every 60 secs for 60 mins by fluorescence assay
Settings: dog, MDCK2 cells overexpressing human ABCC1, probe calcein AM
READOUT KIND: selectivity ratio
Reply with the value as a number alone.

(Q) Please report the recorded selectivity ratio for Cc1cc(Nc2ccc3ncccc3c2)nc(-c2ccccc2)n1 .
(A) 4.9

====

Test system: ABCG2
Test: Therapeutic ratio of GI50 for Growth inhibition of MDCK2 cells over expressing human ABCG2 to IC50 for inhibition of human ABCG2 expressed in MDCK2 cells co-expressing GFP preincubated for 15 mins followed by pheophorbideA addition and measured after 2 hrs by flow cytometric analysis
Type: toxicity, cell-based
Details: dog, MDCK2 cells overexpressing human ABCG2, probe pheophorbide A; read-out: TI
selectivity ratio at 2 h overview
Reply with the value as a number alone.

>>> quantitative_result("Cc1cc(Nc2ccc(F)c(C#N)c2)nc(-c2ccccc2)n1")
1120
>>> quantitative_result("Cc1cc(Nc2ccc(C#N)c(C)c2)nc(-c2ccccc2)n1")
90
>>> quantitative_result("Cc1cc(Nc2ccc([N+](=O)[O-])cc2)nc(-c2ccccc2)n1")
111
>>> quantitative_result("Cc1cc(Nc2ccc(C#N)c(Br)c2)nc(-c2ccccc2)n1")
2440
>>> quantitative_result("Cc1cc(Nc2ccc(C#N)c(C(F)(F)F)c2)nc(-c2ccccc2)n1")
25

Next molecule, selectivity ratio at 2 h to be filled in.
(Q) Lab note: need selectivity ratio at 2 h with ABCG2 for entry COc1ccc(Nc2cc(C)nc(-c3ccccc3)n2)cc1C(F)(F)F , please look it up.
(A) 15

====

Molecular target: ABCG2 (Homo sapiens, UniProt Q9UNQ0)
Sequence (Q9UNQ0 whole entry): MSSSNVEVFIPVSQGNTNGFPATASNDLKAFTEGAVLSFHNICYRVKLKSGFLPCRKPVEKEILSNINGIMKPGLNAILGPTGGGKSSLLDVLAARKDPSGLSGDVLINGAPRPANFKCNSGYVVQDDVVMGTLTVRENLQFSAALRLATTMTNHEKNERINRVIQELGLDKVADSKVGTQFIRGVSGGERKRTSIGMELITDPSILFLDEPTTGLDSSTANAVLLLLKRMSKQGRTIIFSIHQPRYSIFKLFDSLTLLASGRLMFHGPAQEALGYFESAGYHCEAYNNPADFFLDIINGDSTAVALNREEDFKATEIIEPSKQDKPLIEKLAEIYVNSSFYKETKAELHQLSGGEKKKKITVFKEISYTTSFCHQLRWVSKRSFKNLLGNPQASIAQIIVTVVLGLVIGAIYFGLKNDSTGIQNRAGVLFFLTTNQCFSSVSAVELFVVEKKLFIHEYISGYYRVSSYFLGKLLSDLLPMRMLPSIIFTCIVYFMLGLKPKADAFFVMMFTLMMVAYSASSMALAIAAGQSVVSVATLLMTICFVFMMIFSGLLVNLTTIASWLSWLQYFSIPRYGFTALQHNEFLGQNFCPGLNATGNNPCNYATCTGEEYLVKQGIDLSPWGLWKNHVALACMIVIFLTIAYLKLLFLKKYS
Assay: Inhibition of human ABCG2 expressed in MDCK2 cells co-expressing GFP preincubated for 30 mins followed by Hoechst 33342 addition and measured every 60 sec for 120 mins by fluorescence assay relative to control
Type: cell-based, MDCK-II
Conditions: probe Hoechst 33342, read-out: Imax
READOUT KIND: Emax at 2 h (%)
Give the value, in units of %, as a plain number.

>>> quantitative_result("COc1ccc(Nc2cc(C)nc(-c3ccccc3)n2)cc1C(F)(F)F")
100
>>> quantitative_result("Cc1cc(Nc2cccc(Br)c2)nc(-c2ccccc2)n1")
100
>>> quantitative_result("Cc1cc(Nc2ccc3c(c2)C(=O)NC3=O)nc(-c2ccccc2)n1")
105
>>> quantitative_result("Cc1cc(Nc2cccc(F)c2)nc(-c2ccccc2)n1")
100
>>> quantitative_result("Cc1cc(Nc2ccc(F)c([N+](=O)[O-])c2)nc(-c2ccccc2)n1")
100
>>> quantitative_result("Cc1cc(Nc2cccc(O)c2)nc(-c2ccccc2)n1")
74

(Q) Lab note: need Emax at 2 h with ABCG2 (Homo sapiens, UniProt Q9UNQ0) for entry Cc1cc(Nc2ccc3c(c2)OCCO3)nc(-c2ccccc2)n1 , please look it up.
(A) 100

(Q) Okay, and Cc1cc(Nc2ccc(C#N)c(C(F)(F)F)c2)nc(-c2ccccc2)n1 ?
(A) 114
